As shown below, each of these compounds has a reported pIC50 value.
tested_target: acyl-CoA: cholesterol acyltransferase (ACAT) (Oryctolagus cuniculus, UniProt G1SFD9)
Construct: tissue preparation containing rabbit intestinal microsomes; from tissue; host or cells: rabbit intestinal microsomes
Sequence (G1SFD9 1-524): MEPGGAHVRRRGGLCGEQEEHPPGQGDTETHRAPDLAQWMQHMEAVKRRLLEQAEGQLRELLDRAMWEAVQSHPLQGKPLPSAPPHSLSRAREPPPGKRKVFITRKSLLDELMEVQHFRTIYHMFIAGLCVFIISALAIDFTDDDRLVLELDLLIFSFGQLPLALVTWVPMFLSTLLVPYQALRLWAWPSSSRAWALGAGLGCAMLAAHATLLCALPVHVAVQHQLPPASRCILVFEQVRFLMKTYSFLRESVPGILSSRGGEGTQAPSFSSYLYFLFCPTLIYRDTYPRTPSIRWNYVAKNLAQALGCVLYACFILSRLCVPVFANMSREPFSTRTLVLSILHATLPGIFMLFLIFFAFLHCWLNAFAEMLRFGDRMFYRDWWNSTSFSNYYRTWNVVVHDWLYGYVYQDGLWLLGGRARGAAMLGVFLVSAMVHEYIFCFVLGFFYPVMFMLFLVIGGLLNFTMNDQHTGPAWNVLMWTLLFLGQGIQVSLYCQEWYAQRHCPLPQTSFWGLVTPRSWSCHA
procedure_text: In vitro ACAT inhibition (IAI): radiolabeled cholesterol oleate formed from radiolabeled oleic acid in rabbit intestinal microsomes
Format: biochemical
measurement_context: rabbit intestinal microsomes, ACAT; read-out: IAI IC50
pIC50: −log10 of the molar value.

mol_smiles	inequality_operator	pIC50
CC(C)c1cccc(C(C)C)c1NC(=O)N(C)C(=O)N(c1ccccc1)c1ccccc1	=	6.22
CC(C)c1cccc(C(C)C)c1NC(=O)NC(=O)N1c2ccccc2CCc2ccccc21	=	6.05
CCN(CC)C(=O)NC(=O)Nc1c(C(C)C)cccc1C(C)C	<	5.30
CC(C)c1cccc(C(C)C)c1NC(=O)NC(=O)N1CCC(c2ccccc2)CC1	=	5.46
CC(C)c1cccc(C(C)C)c1NC(=O)NC(=O)Nc1c(C(C)C)cccc1C(C)C	<	5.30
CC(C)c1cccc(C(C)C)c1NC(=O)NC(=O)N1CCCC1	<	5.30
CC(C)c1cccc(C(C)C)c1NC(=O)NC(=O)NC(c1ccccc1)c1ccccc1	<	6.00
